# pEC50 per entry
- study system: alpha3 (ganglionic) nACh receptors (Homo sapiens, UniProt P30926+P32297)
- Construct: using the native SH-SY5Y cell line; endogenous in cells
- Sequence (P32297 32-505): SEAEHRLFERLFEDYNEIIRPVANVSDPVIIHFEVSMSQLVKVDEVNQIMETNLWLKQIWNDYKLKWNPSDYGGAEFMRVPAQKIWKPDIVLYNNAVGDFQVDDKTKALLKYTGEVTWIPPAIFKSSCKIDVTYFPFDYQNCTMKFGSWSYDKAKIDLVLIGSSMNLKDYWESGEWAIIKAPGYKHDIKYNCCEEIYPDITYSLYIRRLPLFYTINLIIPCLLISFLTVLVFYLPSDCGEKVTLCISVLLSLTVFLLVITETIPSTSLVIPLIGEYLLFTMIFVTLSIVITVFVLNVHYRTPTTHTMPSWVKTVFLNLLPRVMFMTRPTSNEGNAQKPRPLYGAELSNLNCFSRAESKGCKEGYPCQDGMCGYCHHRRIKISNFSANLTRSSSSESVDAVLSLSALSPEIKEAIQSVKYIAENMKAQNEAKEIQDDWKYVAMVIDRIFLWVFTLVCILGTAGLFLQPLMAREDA
- Sequence (P30926 22-498): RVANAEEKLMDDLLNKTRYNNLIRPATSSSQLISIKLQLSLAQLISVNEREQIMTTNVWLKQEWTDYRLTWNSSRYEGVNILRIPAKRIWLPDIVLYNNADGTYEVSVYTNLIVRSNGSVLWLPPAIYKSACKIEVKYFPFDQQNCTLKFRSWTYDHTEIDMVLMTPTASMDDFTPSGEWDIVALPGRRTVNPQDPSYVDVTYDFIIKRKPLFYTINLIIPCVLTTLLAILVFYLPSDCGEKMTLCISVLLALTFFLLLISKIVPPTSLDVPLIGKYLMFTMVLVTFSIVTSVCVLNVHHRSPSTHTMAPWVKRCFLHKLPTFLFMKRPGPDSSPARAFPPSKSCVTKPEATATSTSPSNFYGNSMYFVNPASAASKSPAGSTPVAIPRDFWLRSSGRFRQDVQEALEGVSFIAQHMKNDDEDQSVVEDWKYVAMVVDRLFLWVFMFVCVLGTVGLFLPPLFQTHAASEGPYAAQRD
- protocol details: calcium-monitoring FLIPR selectivity assay using the native SH-SY5Y cell line
- cond: read-out: Alpha 3 EC50
# reply with the number alone; pEC50 is -log10 of concentration in mol/L

Use the examples below as a reference point.
>>> experimental_result("COc1ccc(F)c(-c2ccc(NC(=O)NCCCCN3CCCCC3)cn2)c1")
5.36
>>> experimental_result("O=C(NCCCCN1CCCCC1)Nc1ccc(-c2ccccc2F)cc1")
5.82
>>> experimental_result("O=C(NCCCCN1CCCCC1)Nc1ccc(-c2ccc(F)cc2)cc1")
5.76
>>> experimental_result("O=C(NCCCCN1CCCCC1)Nc1ccc(-c2ccccc2F)nc1")
5.26
>>> experimental_result("O=C(NCCCCN1CCCCC1)Nc1ccc(-c2ccccc2)cc1")
5.55
>>> experimental_result("COc1ccccc1-c1ccc(NC(=O)NCCCCN2CCCCC2)cc1")
5.97

pEC50 on alpha3 (ganglionic) nACh receptors (Homo sapiens, UniProt P30926+P32297) for "O=C(NCCCCN1CCCCC1)Nc1ccc(-c2ccc(F)cc2)nc1" is 5.02

Fill in: alpha3 (ganglionic) nACh receptors (Homo sapiens, UniProt P30926+P32297) pEC50 for "COc1ccc(-c2ccc(NC(=O)NCCCCN3CCCCC3)cn2)cc1" = 5.39

Response field pEC50 (alpha3 (ganglionic) nACh receptors (Homo sapiens, UniProt P30926+P32297)) for item "O=C(NCCCCN1CCCCC1)Nc1ccc(-c2ccncc2)cc1" : 5.53

// pEC50 (alpha3 (ganglionic) nACh receptors (Homo sapiens, UniProt P30926+P32297)) for "O=C(NCCCCN1CCCCC1)Nc1ccc(-c2cccs2)cc1" = 5.45
